assay_system: T1, human GARP-proTGFβ1 complex (human, UniProt Q14392 20-627; P01137 30-390)
T1 construct: also called hGARP-proTGFβ1; hGARP
T1 sequence (Q14392 20-627, chain 1 of 2): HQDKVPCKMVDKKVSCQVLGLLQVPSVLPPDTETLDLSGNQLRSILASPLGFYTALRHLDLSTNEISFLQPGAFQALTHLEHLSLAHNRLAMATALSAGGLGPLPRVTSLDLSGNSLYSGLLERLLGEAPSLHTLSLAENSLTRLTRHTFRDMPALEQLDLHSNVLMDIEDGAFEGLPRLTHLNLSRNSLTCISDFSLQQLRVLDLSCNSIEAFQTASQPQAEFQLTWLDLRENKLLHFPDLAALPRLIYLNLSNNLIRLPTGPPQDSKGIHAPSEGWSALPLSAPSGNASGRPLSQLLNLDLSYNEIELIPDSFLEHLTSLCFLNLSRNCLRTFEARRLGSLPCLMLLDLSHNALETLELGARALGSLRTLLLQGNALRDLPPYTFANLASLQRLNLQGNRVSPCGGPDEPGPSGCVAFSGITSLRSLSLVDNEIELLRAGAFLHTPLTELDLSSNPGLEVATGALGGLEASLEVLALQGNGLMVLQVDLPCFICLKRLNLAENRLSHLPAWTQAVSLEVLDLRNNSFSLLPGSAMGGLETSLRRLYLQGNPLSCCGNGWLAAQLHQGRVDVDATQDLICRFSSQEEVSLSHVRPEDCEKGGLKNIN
T1 sequence (P01137 30-390, chain 2 of 2): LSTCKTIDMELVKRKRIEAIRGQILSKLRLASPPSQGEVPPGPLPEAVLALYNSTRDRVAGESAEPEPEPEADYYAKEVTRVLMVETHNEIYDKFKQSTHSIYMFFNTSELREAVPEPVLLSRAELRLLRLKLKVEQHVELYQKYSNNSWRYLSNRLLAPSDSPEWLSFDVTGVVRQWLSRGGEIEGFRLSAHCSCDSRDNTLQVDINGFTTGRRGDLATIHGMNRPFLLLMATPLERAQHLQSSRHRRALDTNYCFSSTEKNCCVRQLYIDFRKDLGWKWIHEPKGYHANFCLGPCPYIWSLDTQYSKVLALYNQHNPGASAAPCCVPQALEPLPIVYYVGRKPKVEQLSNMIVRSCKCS
test_protocol: BLI (Octet)
Assign pKd to each entry below.
Entry type: numeric. Quantity: pKd, the -log10 of concentration in molar units.

[Q] Fill in: pKd of Ab14 (antibody, V domains shown) VH: EVQLLESGGGLVQPGGSLRLSCAASGFTFSAYAMTWVRQAPGKGLEWVSAISGTGGSTYYADSVKGRFTISRDNSKNTLYLQMNSLRAEDTAVYYCARVSSGHWDFDYWGQGTLVTVSS VL: DIQMTQSPSSLSASVGDRVTITCRASQSISSYLNWYQQKPGKAPKLLIYAASSLQSGVPSRFSGSGSGTDFTLTISSLQPEDFATYYCQQVYDPPLTFGGGTKVEIK is ___
[A] 7.98

[Q] Consider next the binder Ab11 (antibody, IgG4, V domains shown) VH: EVQLLESGGGLVQPGGSLRLSCAASGFTFRNYAMSWVRQAPGKGLEWVSSISGSGGATYYADSVKGRFTISRDNSKNTLYLQMNSLRAEDTAVYYCARVSSGHWDFDYWGQGTLVTVSS VL: DIQLTQSPSSLSASVGDRVTITCRASQSISSYLNWYQQKPGKAPKLLIYAASNLQSGVPSRFSGSGSGTDFTLTISSLQPEDFATYYCQQTYTVPLTFGGGTKVEIK in the same way.
[A] 9.07

[Q] Then Ab17 (antibody, V domains shown) VH: EVQLLESGGGVVQPGGSLRLSCAASGFTFSSFAMTWVRQAPGKGLEWVSAISGSGAATYFADSVKGRFTISRDNSKNTLYLQMNSLRAEDTAVYYCARVSSGHWDFDYWGQGTLVTVSS VL: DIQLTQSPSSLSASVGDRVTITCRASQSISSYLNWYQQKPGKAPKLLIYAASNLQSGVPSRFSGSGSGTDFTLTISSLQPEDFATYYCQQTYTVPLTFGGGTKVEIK ?
[A] 8.06

[Q] Now consider Ab19 (antibody, IgG4, V domains shown) VH: QVQLVESGGGVVQPGRSLRLSCAASGFTFSSFAMTWVRQAPGKGLEWVSAISGSGAATYFADSVKGRFTISRDNSKNTLYLQMNSLRAEDTAVYYCARVSSGHWDFDEWGQGTLVTVSS VL: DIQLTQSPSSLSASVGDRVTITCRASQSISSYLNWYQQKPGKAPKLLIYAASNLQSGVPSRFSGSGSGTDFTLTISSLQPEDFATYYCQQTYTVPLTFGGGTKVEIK and answer again.
[A] 7.95

[Q] Ab13 (antibody, V domains shown) VH: EVQLLESGGGLVQPGGSLRLSCAASGFTFADYAMTWVRQAPGKGLEWVSAISSFASAIYYADSVKGRFTISRDNSKNTLYLQMNSLRAEDTAVYYCARVSSGHWDFDYWGQGTLVTVSS VL: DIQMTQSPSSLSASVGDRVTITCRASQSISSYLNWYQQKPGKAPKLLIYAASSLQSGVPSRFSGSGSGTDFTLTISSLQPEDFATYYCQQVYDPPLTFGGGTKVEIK ?
[A] 8.00

[Q] Please answer likewise for Ab31 (antibody, IgG4, V domains shown) VH: EVQLVESGGGLVQPGGSLRLSCAASGFTFSSFSMDWVRQAPGKGLEWVSYISPDASTIYYADSVKGRFTISRDNAKNTLYLQMNSLRAEDTAVYYCARAVLDYGDMLDPWGQGTLVTVSS VL: DIQMTQSPSSLSASVGDRVTITCQASQDITNYLNWYQQKPGKAPKLLIYDASNLETGVPSRFSGSGSGTDFTFTISSLQPEDIATYYCQQADNHPPWTFGGGTKVEIK
[A] 9.24

[Q] # repeat for Ab15 (antibody, V domains shown) VH: EVQLVESGGGVVQPGRSLRLSCAASGFTFSDYAMVWVRQAPGKGLEWVSAISGSGFTTYYADSVKGRFTISRDNSKNTLYLQMNSLRAEDTAVYYCARVSSGHWDFDYWGQGTLVTVSS VL: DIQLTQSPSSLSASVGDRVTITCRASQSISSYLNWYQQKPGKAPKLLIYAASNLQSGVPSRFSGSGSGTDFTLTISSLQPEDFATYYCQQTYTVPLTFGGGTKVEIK
[A] 8.15

[Q] Could you do the same for Ab23 (antibody, V domains shown) VH: EVQLVESGGGLVQPGGSLRLSCAASGFTFSSFSMNWVRQAPGKGLEWVSYISPSADTIYYADSVKGRFTISRDNAKNTLYLQMNSLRAEDTAVYYCARGVLDYGDMLDPWGQGTLVTVSS VL: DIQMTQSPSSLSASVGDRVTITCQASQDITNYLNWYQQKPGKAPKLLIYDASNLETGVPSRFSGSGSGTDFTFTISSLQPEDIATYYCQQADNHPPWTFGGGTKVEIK , please?
[A] 8.87

[Q] Continue with Ab30 (antibody, IgG4, V domains shown) VH: EVQLVESGGGLVQPGGSLRLSCAASGFTFSSFSMDWVRQAPGKGLEWVSYISPDASTIYYADSVKGRFTISRDNAKNSLYLQMNSLRAEDTAVYYCARGTLDYGDMLDPWGQGTLVTVSS VL: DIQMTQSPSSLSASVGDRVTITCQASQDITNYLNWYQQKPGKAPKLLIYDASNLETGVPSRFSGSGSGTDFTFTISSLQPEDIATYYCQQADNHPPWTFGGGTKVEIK
[A] 9.08

[Q] Now try Ab33 (antibody, IgG4, V domains shown) VH: EVQLVESGGGLVQPGGSLRLSCAASGFTFSSFSMNWVRQAPGKGLEWVSYISPSADTIYYADSVKGRFTISRDNAKNTLYLQMNSLRAEDTAVYYCAHGVLDYGDMLDPWGQGTLVTVSS VL: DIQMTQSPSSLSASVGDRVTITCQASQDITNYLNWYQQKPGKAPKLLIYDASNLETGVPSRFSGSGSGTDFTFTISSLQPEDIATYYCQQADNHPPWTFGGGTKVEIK .
[A] 9.58

Provenance of the data: patent US20220064275A1
